This collection of values is drawn from the DeepSol protein solubility set.

experiment: soluble on expression in E. coli; label from the status in PepcDB or PDB records
MEASURED_PARAMETER: soluble on expression in E. coli

Recorded results for 8 sequences are shown here.
MANGTVKIAEQSGVLPIAGDKIVLITARGSGRWIIPKGYIEKGMSPAESAAKEAWEEAGIVGSVRHEEIGTYSYRRPSGIFSVRIYPLEVESLLEQWDEMHVRQRRLVTPSEAIEMICLKELRSLITDYLIKRFDFLEHHHHHH | not soluble
MSLRFEGIYTPAVTPHTPDGDIDWAVFSEVLESLIEANVHGIIIGGSTGEYYAQTAEERLKLAAHAKDVMGNRVQLIIGTGAIRTEDAVLFAKDAKALKADAILVTTPPYALPTDQENAIHALTIDRAANMPIMLYNYPGRMGVQMNEDYLARVGKSKNVIAIKESSGEMGRVHLLAREFPHIALSCGWDDQALEFFAWGARSWVCAGSNFLPREHVALYEACVIEKNFDKGRQIMSAMMPLMHALDGGKFVQCIKFGCELNGLKVGDVRAPLRPLNAEDKRSLQTVIANVKEGHHHHHH | not soluble
MSTSDTPRTYHHGNLPAVLRQAAWDIVGEAGVRSVSLRECARRANVSHAAPAHHFGSLENLLAEVVADGYERMVDAVQAAQRELDDPVLGCGMGYVNFARQYPQHFRLMFGMTGVNRALPRLVNSGEATLQLLRQSLRTAWIAKNGVEPEPALLEQRTLLAWSTAHGYASLAIDRTTVEPFVVSAESILQPMAVFLLTP | not soluble
MCMGGINDNLVRFVYKYKIKMKRERSAMNIEYMNQKVEFSLVRKERKSIKISVNRDFTIEVIAPFNVAEEEIKNVVYKKMKWIIKQMKRMENIIDINEEIKYSDGDAFYIFGTPYRLIVKKGIKNKMRIFGENVYMYIKEKDNYEYKKNYAEKWYKKIAAIELEYLYNEKYKIFDEIYDEKPKLIRKMKSKWGSYSPADNKVVLNTQLVKIPKTCIEYVIIHELCHVKFRNHRKEFYNYVNNFMPDWKLKKESLDRYVNVLEHHHHHH | not soluble
MSPWERILLEEILSEPVRLVKERVRTHTGRELTYVYRPGPVAASFVLPVTERGTALLVRQYRHPTGKFLLEVPAGKVDEGETPEAAARRELREEVGAEAETLIPLPSFHPQPSFTAVVFHPFLALKARVVTPPTLEEGELLESLELPLTEVYALLAKGEIQDASTALTLFYAEPHLKRLGLL | soluble
MSSNENSDDVPEQRQIVRRSRVYNPRDPSSPEPPYDPYPPGIHAQAGCATRPISAHIVPQALIEPIRLHREEDELAGTSSCRPVPQCDFNLESDRWEEDQLENPQIKSQWKGSETRPVANFARRQQRVLRTDWKHVDVQITVWEELKKVLEAAEIVDVTLNMMKTLNPDTKAMWLLKFHTTSLTEYLEDFESRAEYFNEMLLELDGIHPDLFTECSNYISQLKDVTHSRELQAVQVHLPKAVKNSDAQKVRFYLQLAGEAKKDIAVVLNNNKVKTLLIDNGFTL | not soluble
ASASTPHALLLISIDGLRADMLDRGITPNLSHLAREGVRARWMAPSYPSLTFPNHYTLVTGLRPDHHGIVHNSMRDPTLGGFWLSKSEAVGDARWWGGEPVWVGVENTGQHAATWSWPGSEAAIKGVRPSQWRHYQKGVRLDTRVDAVRGWLATDGAQRNRLVTLYFEHVDEAGHDHGPESRQYADAVRAVDAAIGRLLAGMQRDGTRARTNIIVVSDHGMAEVAPGHAISVEDIAPPQIATAITDGQVIGFEPLPGQQAAAEASVLGAHDHYDCWRKAELPARWQYGSHPRIPSLVCQMHEGWDALFPDKLAKRAQRGTRGSHGYDPALPSMRAVFLAQGPDLAQGKTLPGFDNVDVYALMSRLLGIPAAPNDGNPATLLPALRMPPAPDAR | soluble
MAVPEGNSWTYTAASASITAPAQLVGNVGELQGAGSAVIWNVDVPVTGEYRINLTWSSPYSSKVNTLVMDGTALSYAFAEATVPVTYVQTKTLSAGNHSFGVRVGSSDWGYMNVHSLKLELLGGLTIRSPANLEHHHHHH | soluble

Give the measured soluble on expression in E. coli of MGSDKIHHHHHHMNNTPANRLQPKHFTLIKAIGDLGQLSLAAGQVSMTQPAASRMLAEIERIVGAAVFLRTPKGMEATEVGAALVRRSEILLQEMREAMREVDAIKRGASGTVSVGAVTGGALGYIVPAISTLKAEARTADIYVDVAPSGTLISNLVSGQFDFVLGRIPVGVDARQFHIRHARTEEVDLIVHQSHPLANSTDLRMTDLLHFPWVMQGPGAPVRQAVENAFIDAGTTLPVDVVNTTSLLVMIAMIAASNAITPLSREVSDLLCRQTTGAGLCRLKIRRPIIVLPYHLISMKNRHMSTLAARLQDLVLQEFITR .
not soluble

Give the measured soluble on expression in E. coli of MGSDKIHHHHHHMNNESLTLDAYPVEVEFPDIRPYAEGNCGIPYVFTFDSGVAGPHVMVNALTHGNEVCGAITVKGLLDAGVKPRRGRVTFAFANVDAYACFDPARPDASRFVDQDFNRVWTSAVLDDASRDSSELRRARAMRPVIDTVDLLLDLHSMHEKSRPLIVSGPLDKGIALARALGAPADVIVDEGHPEGRRMRDYADFGDPASARNALLIECGQHWETSAVTVARDSAARFLLNAGVIDAQDVPTGWLQPLAATQRVVRVTEPVVANSMDFRFAGPYTGLETFMEAGTVIGWRDGEPVVTPYPNCVLVMPSLRQLRPGVTVVRLGQLEA .
not soluble

Give the measured soluble on expression in E. coli of GILDPEERYEHQLRQLNDMGFFDFDRNVAALRRSGGSVQGALDSLLNGDV .
soluble

Give the measured soluble on expression in E. coli of METDPDYSMVLLTENFPPYNMAINGKNFAQEDNIDGIAVDIVREMFKRAGIKYSLTLRFPWDRIYKLALEKPGYGVFVTARLAEREDKFKWVGPIGPDDWVLLAKGDSPITLGSLDEAKKYRIGAYKGDAIAEFLGKNGFEADLALRDQENAQKLVKGQIDLWASGDPAGRYLAKQEGVTGLKTVLRFNSDQLYLALNRETPDEVVQKLQAALDGMRKEGFVEDILNSYLLEHHHHHH .
soluble
